Source listed as PubChem BioAssay.

- Assay Text: growth suppression of yeast trafficking mutant, preliminary HTS, modulators of trafficking downstream of Golgi apparatus project, 1536-format plate, OD 615 nm (AID 637)
- Measurement Context: yeast transport mutant growth, absorbance 615 nm, 18 h; stronger effect = higher value
Listed here are molecules together with their documented inhibition.
Observation Type: inhibition (%)

{"columns": ["Molecule", "Assay Result"],
 "data": [
  ["CNC(=O)CC(C(=O)O)c1ccc(OC(C)C)cc1 (stereo unspecified)", 1.75],
  ["COC(=O)C(CC(C)C)NC(=O)CSc1nc(-c2ccccc2)c(C#N)c(=O)[nH]1 (stereo unspecified)", 4.1],
  ["CCOc1cc(-c2nc(-c3ccccc3OC)no2)cc(OCC)c1OCC", 22],
  ["CN1C(=O)NC(NC(=O)C2CCCCC2)(C(F)(F)F)C1=O (stereo unspecified)", -0.65],
  ["CCOc1cc(C2C(C(=O)OC(C)C)=C(C)N=C3SCCC(=O)N32)ccc1OC(C)=O (stereo unspecified)", 2.18],
  ["O=C(c1ccc(-c2cccc(C(F)(F)F)c2)o1)N1CCOCC1", -2.58],
  ["O=C1C2CCCN2C(c2ccc(Cl)cc2)N1c1nccs1 (stereo unspecified)", -1.94],
  ["CCOCCc1nnc(NC(=O)c2ccc(OC)c(OC)c2)s1", -3.39],
  ["O=C(NCc1cccnc1)c1ccc(=O)oc1", -5.33],
  ["CCOC(=O)C1CCCN(C/C(O)=C(\\C#N)c2nc(-c3ccc(Cl)cc3)cs2)C1 (stereo unspecified)", -3.17],
  ["O=C(CN1CCOCC1)N1CCN(C(=O)CN2CCOCC2)CC1", 1.97]
]}

====

- Assay Text: reversal of MRP1-mediated doxorubicin resistance, pilot screen, H69AR cells, doxorubicin co-treatment (AID 601)
- Measurement Context: H69AR cells, CellTiter-Glo, 72 h; compound alone cytotoxicity; at 10 µM
I'd appreciate it if you marked entries YES when viability is lower than 90% and NO when it is not.

{"columns": ["Molecule", "Classification"],
 "data": [
  ["c1c2c(cc3sc(N4CCCCC4)nc13)OCCO2", "YES"],
  ["CC1=NC(Nc2nc(C)c3ccccc3n2)=NC(C)(C)C1", "YES"],
  ["CCOC(=O)N1CCN(C(=O)COc2ccc(S(=O)(=O)NC3CCCCC3)cc2C)CC1", "NO"],
  ["CCOc1ccc2ccccc2c1C(=O)N1CCN(c2ccccc2)CC1", "YES"],
  ["COc1ccc(NC(=O)Cn2nnc(-c3ccccc3N)n2)cc1OC", "NO"],
  ["O=C(Nc1ccccc1C(=O)N1CCN(c2ccccc2)CC1)c1ccco1", "NO"],
  ["CN(C)c1ccc(/C(=N\\O)c2ccccc2)cc1", "NO"],
  ["COc1ccc(C2=NOC(C(=O)NCCCN3CCOCC3)C2)cc1 (stereo unspecified)", "YES"],
  ["CCC(c1nnnn1CCOC)N(Cc1ccc(C)cc1)Cc1cc2cc(OC)ccc2[nH]c1=O (stereo unspecified)", "YES"],
  ["Cc1ccc(CNC(=O)CSc2n[nH]c(N)n2)cc1", "NO"]
]}

====

- Assay Text: SK-BR-3 cell growth inhibitors, pilot screen, 24 h, human (AID 572);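 also: compound exposure lasted between 18 and 24 h rather than exactly 24 h; 100% = carrier-treated control wells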
- Measurement Context: SK-BR-3 viability, CellTiter-Glo luminescence, at 10 µM, stronger effect = lower value
I'd appreciate it if you marked entries True when viability is lower than 90% and False when it is not.

{"columns": ["Compound", "Classification"],
 "data": [
  ["C=CCn1c(=O)[nH]c2cc(C(=O)N3CCN(c4cc(C)ccc4C)CC3)ccc2c1=O", "True"],
  ["OCCNc1nc2ccc(Cl)cc2[nH]1", "True"],
  ["COc1cccc(C(=O)Nc2ccc(C)cc2)c1", "False"],
  ["Cn1c(CN2CCOCC2)nc2cc(NC(=O)c3ccccc3Cl)ccc21", "False"],
  ["CCc1nnc(NC(=O)CSc2nnc(-c3ccc(OC)cc3)n2C)s1", "True"],
  ["S=c1[nH]nc(-c2ccco2)n1-c1cccc2ccccc12", "False"],
  ["CC1=C(C(=O)OC2CCCCC2)C(c2cccnc2)n2ncnc2N1 (stereo unspecified)", "False"],
  ["CCOC(=O)c1[nH]c2ccc(OC)cc2c1NC(=O)CCN1CCC(C)CC1", "False"],
  ["CCn1nc(C)c(NC(=O)c2cc(Br)ccc2Cl)c1C", "True"],
  ["Cc1nc2nc(SCC(=O)NCc3ccco3)nn2c(C)c1Cc1ccccc1", "True"]
]}
